# System: HCC1569;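 note: TDF is a line of transformed human dermal fibroblasts of mesenchymal origin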
# Procedure Details: H1.0 immunofluorescence intensity relative to DMSO (% of DMSO); higher = stronger H1.0 induction, active = 140 or more
# Experimental Parameters: concentration: 10 µM; 24 h
Classification field: enter 1 (yes) for H1.0 immunofluorescence intensity values not below 90, 0 (no) for values below it.

>  <Compound>
Nc1ccc(-c2cccc3c(=O)cc(N4CCOCC4)oc23)cc1

>  <Answer Label>
1 (yes)

$$$$

Hi team, for "CCCCC(=O)N(Cc1ccc(-c2ccccc2-c2nn[nH]n2)cc1)[C@H](C(=O)O)C(C)C" , is the recorded H1.0 immunofluorescence intensity at or above 90?
1 (yes)

Hi team, for COc1ccc(Cl)cc1NC(=O)Nc1cc(C)nc2ccccc12 [N-(5-Chloro-2-methoxyphenyl)-N'-(2-methyl-4-quinolinyl)urea] , is the recorded H1.0 immunofluorescence intensity at or above 90?
1 (yes)

Hi team, for "O=P(O)(O)C(O)(Cc1cccnc1)P(=O)(O)O" , is the recorded H1.0 immunofluorescence intensity at or above 90?
1 (yes)

Hi team, for "O=c1cc(-c2cccc3c2Sc2ccccc2S3)oc(N2CCOCC2)c1" , is the recorded H1.0 immunofluorescence intensity at or above 90?
1 (yes)

Hi team, for "CCCCCC(=O)C=CC=CCC=CCC=CCCCC(=O)O" , is the recorded H1.0 immunofluorescence intensity at or above 90?
0 (no)

---

# Tested on: HCC1569;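 note: TDF is a line of transformed human dermal fibroblasts of mesenchymal origin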
# Procedure Details: H1.0 immunofluorescence intensity relative to DMSO (% of DMSO); higher = stronger H1.0 induction, active = 140 or more
# Experimental Parameters: concentration: 10 µM; 24 h
# output must be one of active, inactive

>  <Molecule>
Cl.NC(N)=NC(=O)Cc1c(Cl)cccc1Cl [Guanfacine hydrochloride]

>  <Assay Target>
HCC1569;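 note: TDF is a line of transformed human dermal fibroblasts of mesenchymal origin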

>  <Answer Label>
inactive

$$$$

Test call for this molecule, please: "Cc1cnc(Nc2ccc(OCCN3CCCC3)cc2)nc1Nc1cccc(S(=O)(=O)NC(C)(C)C)c1"
active

---

# Tested on: HCC1569;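 note: TDF is a line of transformed human dermal fibroblasts of mesenchymal origin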
# Procedure Details: H1.0 immunofluorescence intensity relative to DMSO (% of DMSO); higher = stronger H1.0 induction, active = 140 or more
# Experimental Parameters: concentration: 10 µM; 24 h
Classification field: enter TRUE for H1.0 immunofluorescence intensity values not below 100, FALSE for values below it.

Look over these answered cases.
>  <Compound>
C=C(c1ccc(C(=O)O)cc1)c1cc2c(cc1C)C(C)(C)CCC2(C)C

>  <Answer Label>
TRUE

$$$$
>  <Compound>
Cl.O.O=C(O)CN(CCN(CC(=O)O)Cc1ccccc1O)Cc1ccccc1O

>  <Answer Label>
FALSE

$$$$
>  <Compound>
O=C(O)CP(=O)(O)O

>  <Answer Label>
FALSE

$$$$
>  <Compound>
O=S(=O)(NCc1ccccn1)c1ccc(Br)c2ccccc12 [4-bromo-N-(2-pyridinylmethyl)-1-naphthalenesulfonamide]

>  <Answer Label>
TRUE

$$$$
>  <Compound>
O=C(O)C(O)C(O)C(=O)O.O=C(c1ccc(F)cc1)C1CCN(CCn2c(=O)[nH]c3ccccc3c2=O)CC1 [Ketanserin tartrate]

>  <Answer Label>
TRUE

$$$$

Hi team, for CC(=O)O.NC(=NCCCC(N)C(=O)O)NO [NG-Hydroxy-L-arginine acetate] , is the recorded H1.0 immunofluorescence intensity at or above 100?
FALSE

Hi team, for CN1CCN(CC(=O)N2c3ccccc3C(=O)Nc3cccnc32)CC1.Cl.Cl [Pirenzepine dihydrochloride] , is the recorded H1.0 immunofluorescence intensity at or above 100?
FALSE

Hi team, for "CCCCCCCCCCCCCCCCCCCCCCCC(=O)O" , is the recorded H1.0 immunofluorescence intensity at or above 100?
TRUE
